test.details: Binding affinity to lipid A moiety of LPS in gram negative bacteria by fluorescent-based displacement assay
Kindly supply the reported ED50 values for the records listed here.
Answer format: numeric, µM implied, no suffix.

Give its ED50 value. Item: CCCCCCCCCCS(=O)(=O)NCCCN(CCCNCCCCNCCCN)CCCNS(=O)(=O)CCCCCCCCCC
2.4

Returns the measured ED50 for the input compound. Input: CCCCCCCCCCCCCCCCS(=O)(=O)NCCCN(CCCN)CCCN
12.3

Recorded ED50 for CCCCCCCCCCCCS(=O)(=O)NCCCNCCCNCCCCNCCCN , please?
2.92

State the recorded ED50 for this entry: CCCCCCCC(=O)NCCCN(CCCNCCCCNCCCN)CCCNC(=O)CCCCCCC
1

I am curious: what ED50 value has been reported for CCCCCCCCCCCCCCCCCCS(=O)(=O)NCCCNCCCNCCCCNCCCN ?
4.45

What ED50 value was documented for this compound, CCCCCCCCCCCCS(=O)(=O)NCCNCCCNCCN ?
4.77

Tell me the measured ED50 of CCCCCCCCCCS(=O)(=O)NCCCN(CCCNCCCNCCCCNCCCN)CCCNS(=O)(=O)CCCCCCCCCC , please.
1.16

Give its ED50 value. Item: CCCCCCCCCCS(=O)(=O)NCCCNCCCNCCCCNCCCNCCCNS(=O)(=O)CCCCCCCCCC
13.5
